Source of measurements: patent US20210380703A1

Exercise: state measured optical density for each of the binders provided.
molecular target: T1, Goat anti-Human Kappa; assay: ELISA; positive control; also: test concentration or dose not given here
T1 construct: Positive control; also called biotinylated goat anti-human kappa light chain
Write the answer as a number in OD, unit excluded.

According to the records, this binder 365_H12 (antibody, V domains shown, VH/VL only) VH: EVQLLESGGGLVQPGGSLRLSCAASGFTFSSYSMNWVRQAPGKGLEWVSNINYNGGYKSYADSVKGRFTISRDNSKNTLYLQMNSLRAEDTAVYYCARSANWHDTHLDYWGQGTLVTVSS VL: DIQMTQSPSSLSASVGDRVTITCRASQSIITYVNWYQQKPGKAPKLLIYAATSRASGVPSRFSGSGSGTDFTLTISSLQPEDFATYYCQQSYSTPLTFGGGTKVEIK displays optical density of 3.78

Per the records, this binder ( 365_E09 (antibody, V domains shown, VH/VL only) VH: EVQLLESGGGLVQPGGSLRLSCAASGFTFSSYGMHWVRQAPGKGLEWVASINYNSGYKSYADSVKGRFTISRDNSKNTLYLQMNSLRAEDTAVYYCARSANWHDTALDYWGQGTLVTVSS VL: DIQMTQSPSSLSASVGDRVTITCRASQSILTYVNWYQQKPGKAPKLVIYAATSRASGVPSRFSGSGSGTDFTLTISSLQPEDFATYYCQQSDDSPLTFGGGTKVEIK ) has optical density equal to 3.47

Memo: 374_G05 (antibody, V domains shown, VH/VL only) VH: EVQLLESGGGLVQPGGSLRLSCAASGFTFSSYSMNWVRQAPGKGLEWVSNINYNSGYKGYADSVKGRFTISRDNSKNTLYLQMNSLRAEDTAVYYCARGATWHDTHLDYWGQGTLVTVSS VL: DIQMTQSPSSLSASVGDRVTITCRASQSIISYLNWYQQKPGKAPKLLIYAATSRASGVPSRFSGSGSGTDFTLTISSLQPEDFATYYCQQSYDLPLTFGGGTKVEIK , reported optical density: 3

So, 376_H01 (antibody, V domains shown, VH/VL only) VH: EVQLLESGGGLVQPGGSLRLSCAASGFTFSDYSMNWVRQAPGKGLEWVAGINYNGGYKGYADSVKGRFTISRDNSKNTLYLQMNSLRAEDTAVYYCARGANWHDTALDYWGQGTLVTVSS VL: DIQMTQSPSSLSASVGDRVTITCRASQSILTYLNWYQQKPGKAPKLLIYAATSRASGVPSRFSGSGSGTDFTLTISSLQPEDFATYYCQQSYSTPLTFGGGTKVEIK ? Its optical density was 3.28

Short answer for 366_B08 (antibody, V domains shown, VH/VL only) VH: EVQLLESGGGLVQPGGSLRLSCAASGFTFDSYGMNWVRQAPGKGLEWVSNINYNGGYKGYADSVKGRFTISRDNSKNTLYLQMNSLRAEDTAVYYCARSANWHDTHLDYWGQGTLVTVSS VL: DIQMTQSPSSLSASVGDRVTITCRASQSIVSYLNWYQQKPGKAPKLLIYAATSRHSGVPSRFSGSGSGTDFTLTISSLQPEDFATYYCQQSYDNPLTFGGGTKVEIK : optical density was 3.05

Per the record, 375_F10 (antibody, V domains shown, VH/VL only) VH: EVQLLESGGGLVQPGGSLRLSCAASGFTFSSYSMNWVRQAPGKGLEWVSGINYNGGYTGYADSVKGRFTISRDNSKNTLYLQMNSLRAEDTAVYYCARGATWHDTHLDYWGQGTLVTVSS VL: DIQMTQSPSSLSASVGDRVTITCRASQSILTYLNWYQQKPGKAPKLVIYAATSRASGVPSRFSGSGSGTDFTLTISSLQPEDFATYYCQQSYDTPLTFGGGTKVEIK has optical density of 3.29

Consider 365_C02 (antibody, V domains shown, VH/VL only) VH: EVQLLESGGGLVQPGGSLRLSCAASGFTFDSYSMNWVRQAPGKGLEWVSNINYNGGYKGYADSVKGRFTISRDNSKNTLYLQMNSLRAEDTAVYYCARGATWHDTHLDYWGQGTLVTVSS VL: DIQMTQSPSSLSASVGDRVTITCRASQSISTYLNWYQQKPGKAPKLVIYAATSRHSGVPSRFSGSGSGTDFTLTISSLQPEDFATYYCQQSYENPLTFGGGTKVEIK . Its measured optical density is 3.45

optical density for 370_F12 (antibody, V domains shown, VH/VL only) VH: EVQLLESGGGLVQPGGSLRLSCAASGFTFSDYSMNWVRQAPGKGLEWVANINYNGGYTGYADSVKGRFTISRDNSKNTLYLQMNSLRAEDTAVYYCARGATWHDTHLDYWGQGTLVTVSS VL: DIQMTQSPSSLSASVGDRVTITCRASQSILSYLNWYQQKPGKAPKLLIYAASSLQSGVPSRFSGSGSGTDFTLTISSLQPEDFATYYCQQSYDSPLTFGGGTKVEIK is 3.64

Input 366_H08 (antibody, V domains shown, VH/VL only) VH: EVQLLESGGGLVQPGGSLRLSCAASGFTFSDYGMNWVRQAPGKGLEWVASINYNSGYTSYADSVKGRFTISRDNSKNTLYLQMNSLRAEDTAVYYCARSANWHDTHLDYWGQGTLVTVSS VL: DIQMTQSPSSLSASVGDRVTITCRASQSILSYVNWYQQKPGKAPKLLIYAATSRHSGVPSRFSGSGSGTDFTLTISSLQPEDFATYYCQQSYNNPLTFGGGTKVEIK . Output optical density: 3.55

// optical density lookup, binder = 370_D03 (antibody, V domains shown, VH/VL only) VH: EVQLLESGGGLVQPGGSLRLSCAASGFTFSSYSMNWVRQAPGKGLEWVASINYNGGYTSYADSVKGRFTISRDNSKNTLYLQMNSLRAEDTAVYYCARGATWHDTHLDYWGQGTLVTVSS VL: DIQMTQSPSSLSASVGDRVTITCRASQSIITYLNWYQQKPGKAPKLLIYAATSRASGVPSRFSGSGSGTDFTLTISSLQPEDFATYYCQQSYDLPLTFGGGTKVEIK , result: 3.58
